# Test system: Mycobacterium tuberculosis
# ASSAY COMMENT: Antitubercular activity against Mycobacterium tuberculosis H37Rv ATCC 27294 after 28 days by two-fold serial dilution method
# Assay type: functional
# STUDY CONDITIONS: Mycobacterium tuberculosis, H37Rv ATCC 27294, 672 h
Here the recorded MIC is given for each entry.

{"COMPOUND": "CC[C@@H](CO)NCCN[C@@H](CC)CO [ETHAMBUTOL]", "TESTED TARGET": "Mycobacterium tuberculosis", "UNIT ABBREVIATION": "µM", "MIC": 7.64}
{"COMPOUND": "COc1ccccc1N1CCN(C(=O)c2nc3ccccc3s2)CC1", "TESTED TARGET": "Mycobacterium tuberculosis", "UNIT ABBREVIATION": "µM", "MIC": 8.84}
{"COMPOUND": "O=C(c1nc2ccccc2s1)N1CCN(c2ccccc2)CC1", "TESTED TARGET": "Mycobacterium tuberculosis", "UNIT ABBREVIATION": "µM", "MIC": 4.82}
{"COMPOUND": "O=C(c1nc2cc(Cl)ccc2s1)N1CCN(c2ccccc2)CC1", "TESTED TARGET": "Mycobacterium tuberculosis", "UNIT ABBREVIATION": "µM", "MIC": 17.5}
{"COMPOUND": "CN1CCN(C(=O)c2nc3ccccc3s2)CC1", "TESTED TARGET": "Mycobacterium tuberculosis", "UNIT ABBREVIATION": "µM", "MIC": 12}
{"COMPOUND": "O=C(c1nc2cc(C(F)(F)F)ccc2s1)N1CCN(C(c2ccccc2)c2ccccc2)CC1", "TESTED TARGET": "Mycobacterium tuberculosis", "UNIT ABBREVIATION": "µM", "MIC": 51.9}
{"COMPOUND": "O=C(c1nc2ccccc2s1)N1CCCCC1", "TESTED TARGET": "Mycobacterium tuberculosis", "UNIT ABBREVIATION": "µM", "MIC": 101}
{"COMPOUND": "CC(=O)c1ccc(N2CCN(C(=O)c3nc4ccccc4s3)CC2)cc1", "TESTED TARGET": "Mycobacterium tuberculosis", "UNIT ABBREVIATION": "µM", "MIC": 4.27}
{"COMPOUND": "O=C(c1nc2cc(Cl)ccc2s1)N1CCN(c2cnccn2)CC1", "TESTED TARGET": "Mycobacterium tuberculosis", "UNIT ABBREVIATION": "µM", "MIC": 17.4}
